# Target Desc: DLG1_3, Q12959
# Sequence (Q12959 457-571): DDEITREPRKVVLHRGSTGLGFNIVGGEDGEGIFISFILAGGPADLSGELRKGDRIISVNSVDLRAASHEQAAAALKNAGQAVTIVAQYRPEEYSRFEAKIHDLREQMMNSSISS
# Assay Info: holdup assay
# Parameters: key: below the threshold = too weak to quantify, mostly under pKd 3.1 to 4
# Condition Set: plain residues with an end cap or a label only (N-terminal biotin on a linker: ado-ado)

# Binder, pKd
data = [
    ("DTKNYKQTSV [CRIPT, Q9P021]", 5.26),
    ("QRPYRRGSEI [KCNJ18, B7U540]", "below the threshold"),
    ("NTANRRTTPV [CACNG2, Q9Y698]", 4.16),
    ("EPQYQPGENL [SRC, P12931]", "below the threshold"),
    ("SFISKKEWYV [NECTIN1, Q15223]", "below the threshold"),
    ("STKRKLASAV [NCF1, P14598]", "below the threshold"),
    ("AQRARSPSDV [GPR12, P47775]", "below the threshold"),
    ("TRKRSGEAAV [PFKM, P08237]", "below the threshold"),
]
